System: FXR:RXRa (NR concentration 270 nM, RXRa partner concentration 90 nM)
TEST DESCRIPTION: PBM binding z-score (relative to random genomic background probes); higher = stronger binding; sequences stand for … in GC…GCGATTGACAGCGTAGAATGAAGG
Label 1.0 when PBM binding z-score is at or above 1; anything below gets 0.0.

CHAIN: ATCTCTAGTTAACAAGTTCAGTGAAAGAGAGGAC
LABEL: 0.0
//
CHAIN: GCTAGTTGGACAGTAAAAGGTCACACACCGGTCG
LABEL: 1.0
//
CHAIN: ACAGACAGGTGAGTGAAGGTAACTCTGCTGGACG
LABEL: 0.0
//
CHAIN: ATCGAAACGTCGAAGGTGAGTATACCCACCCGAA
LABEL: 0.0
//
CHAIN: CCTTGTTGGTCAGGAGGTCACACACCGGATATGA
LABEL: 1.0
//
CHAIN: CCGACTAGGGCATAAGGTTACCATAAGCCAGCCC
LABEL: 0.0
//
CHAIN: TCTATTAGTTTATTAGGGCAACCGAAACAGCGGA
LABEL: 1.0
//
CHAIN: CGAACTAGGTCAGTGACAGGACAGTGAATAGTAA
LABEL: 1.0
//
CHAIN: TCATATAGGTAAATGCTAGGTGAAAGTCCGATCT
LABEL: 1.0
//
CHAIN: CCTGCTAGGTCATGGTCCGCTAATCTACAGTATG
LABEL: 1.0
//
CHAIN: GCGAGTGGGGCATCAGCAGGTTACCATAACTTAA
LABEL: 0.0
//
CHAIN: AGAACGAGGGCACTCTGAGTTGATAGCAGAGTAG
LABEL: 0.0
//
CHAIN: GCTGCTAGGTCAGGTTGGTCAGCTAGCGGGTACG
LABEL: 1.0
//
CHAIN: CGAACTAGGTCAGGGACAGTGAATCTCCGCACGC
LABEL: 1.0
//
CHAIN: ATCTCTAGGTAACAAGTTCAGGGAAAGAGAGGAC
LABEL: 1.0
//
CHAIN: TAGCCTAGGTCAGAGCGGGCCAGTATACGCTATA
LABEL: 1.0
//
CHAIN: TCTGCTAGGTCAACGGTGGTCAGCTAATCTGCTA
LABEL: 1.0
//
CHAIN: TCTGCTAGGTCAGTTGGTCAGCTACCGAGCTGCC
LABEL: 0.0
//
CHAIN: CGTCCAAGGTCAATGTCAGTGAAAGAGACTCGAA
LABEL: 1.0
//
CHAIN: ATCTGTAGGTAACCAAGTTCAGTGAATGCCGAAC
LABEL: 0.0
//
CHAIN: GCTGTTAGTTGAAAGGGCAACCGAATGATTCTCG
LABEL: 0.0
//
CHAIN: CCTTACGGGTCACTCCAGGGTATAGCATCGGAGT
LABEL: 1.0
//
CHAIN: CCTGCTAGGTCAATGGTCAGATAAAGCAGCTCGC
LABEL: 1.0
//
CHAIN: AATACAGGGTCACTAGGCCAGAGAAGGTACGAAT
LABEL: 1.0
//
CHAIN: GGAACGAGGGAAAAGTTGATAGCATCTGTCGACG
LABEL: 0.0

* * *

Test system: RXRa homodimer (NR concentration 180 nM)
TEST DESCRIPTION: PBM binding z-score (relative to random genomic background probes); higher = stronger binding; sequences stand for … in GC…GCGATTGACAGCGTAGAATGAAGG

CHAIN: CCTATTTGTTGACCATAAGGGCAACCGAAGCTCG
PBM binding z-score: 0.768

CHAIN: TAGCCTAGGTCATTCAGGGGCCAATATAGAAAGC
PBM binding z-score: 3.15

CHAIN: CCTAGCAGGCCTATCTGGGTCACTCAAGGCTTGA
PBM binding z-score: 0.644

CHAIN: CGTACGAGGGCATGAGTTGATAGCAAATGCCGAT
PBM binding z-score: 1.03

CHAIN: AATATTAGTTGAGACGAGGGCAACCGATAGGTTG
PBM binding z-score: 0.883

CHAIN: GCTGTTAGGTCAACTGATGGTCAGCTAAAGCTCG
PBM binding z-score: 3.51

CHAIN: CGTCAAAGTTCAACAAAGGTAACGTAAAGCACGC
PBM binding z-score: 4.82

CHAIN: CGAACGAGGGCATCAGTTGATAGCAAATGCCGAT
PBM binding z-score: 0.686

CHAIN: CCGACTGAGGCAGAAAGGTTACCATACCATCCGG
PBM binding z-score: 1.87

CHAIN: CCTACTGGGCCACGAAAGGTCATTGGTTCAGTGA
PBM binding z-score: 5.25

CHAIN: TCTAGTTGGTCAAAGGTCACACCCTCGAAATGCG
PBM binding z-score: 8.03

CHAIN: CCTAGCAGGCCAGGGTCACTCACGCATTTCGCTT
PBM binding z-score: 3.32

CHAIN: TGAATGAGGTTATAAGATGAGGGAACGTTGCAAA
PBM binding z-score: 1.76

CHAIN: AGAATGAGGTGATACGTAGATCAGGGAAGAAAGT
PBM binding z-score: 0.719

CHAIN: GTACCCAGGTGAATAGGTCGTTGATGAGTAGGCG
PBM binding z-score: 1.18

CHAIN: GCTTATGGGTCAAAGGTTATAGCATGAATAGAAT
PBM binding z-score: 9.21

CHAIN: GCATATAGGTGATACAAGGTGAAAGTCCGATTGT
PBM binding z-score: 0.856

CHAIN: GCATATAGGTAATACAAGGTGATAGTCCGATTGT
PBM binding z-score: 0.526

CHAIN: CAAACTAGGTCACAGAGGTCAAAGCCCGTGCGTA
PBM binding z-score: 7.75

CHAIN: GGTGCTAGGTCAGGTTGGTCAGCTAACGGGTACG
PBM binding z-score: 1.38

CHAIN: ACTATTAGTTGAGACGAGGGCTACCGATAGGTTG
PBM binding z-score: 0.235

CHAIN: ACTATAAGTTGAGACGAGGGCAACCGATAGGTTG
PBM binding z-score: 0.925

CHAIN: GCTGCTAGGTCAACTGATGGTCAGTTAAAGCTCG
PBM binding z-score: 2.85

CHAIN: CGAACTTGGTCAAGGACAGTGAATCTCCGCACGC
PBM binding z-score: 0.275

CHAIN: CGTCCAAGGTCAGCAGGTCAGTGTAAGCGACGTG
PBM binding z-score: 4.93

CHAIN: TCGAGTAGGTTAGTGGCATTCAGAATGGCGTCGA
PBM binding z-score: -0.235

Origin of the recorded values: the supplement of paper PMC6555819
